target: Nitric oxide synthase 1 (Homo sapiens, UniProt P29475)
Sequence (P29475 whole entry): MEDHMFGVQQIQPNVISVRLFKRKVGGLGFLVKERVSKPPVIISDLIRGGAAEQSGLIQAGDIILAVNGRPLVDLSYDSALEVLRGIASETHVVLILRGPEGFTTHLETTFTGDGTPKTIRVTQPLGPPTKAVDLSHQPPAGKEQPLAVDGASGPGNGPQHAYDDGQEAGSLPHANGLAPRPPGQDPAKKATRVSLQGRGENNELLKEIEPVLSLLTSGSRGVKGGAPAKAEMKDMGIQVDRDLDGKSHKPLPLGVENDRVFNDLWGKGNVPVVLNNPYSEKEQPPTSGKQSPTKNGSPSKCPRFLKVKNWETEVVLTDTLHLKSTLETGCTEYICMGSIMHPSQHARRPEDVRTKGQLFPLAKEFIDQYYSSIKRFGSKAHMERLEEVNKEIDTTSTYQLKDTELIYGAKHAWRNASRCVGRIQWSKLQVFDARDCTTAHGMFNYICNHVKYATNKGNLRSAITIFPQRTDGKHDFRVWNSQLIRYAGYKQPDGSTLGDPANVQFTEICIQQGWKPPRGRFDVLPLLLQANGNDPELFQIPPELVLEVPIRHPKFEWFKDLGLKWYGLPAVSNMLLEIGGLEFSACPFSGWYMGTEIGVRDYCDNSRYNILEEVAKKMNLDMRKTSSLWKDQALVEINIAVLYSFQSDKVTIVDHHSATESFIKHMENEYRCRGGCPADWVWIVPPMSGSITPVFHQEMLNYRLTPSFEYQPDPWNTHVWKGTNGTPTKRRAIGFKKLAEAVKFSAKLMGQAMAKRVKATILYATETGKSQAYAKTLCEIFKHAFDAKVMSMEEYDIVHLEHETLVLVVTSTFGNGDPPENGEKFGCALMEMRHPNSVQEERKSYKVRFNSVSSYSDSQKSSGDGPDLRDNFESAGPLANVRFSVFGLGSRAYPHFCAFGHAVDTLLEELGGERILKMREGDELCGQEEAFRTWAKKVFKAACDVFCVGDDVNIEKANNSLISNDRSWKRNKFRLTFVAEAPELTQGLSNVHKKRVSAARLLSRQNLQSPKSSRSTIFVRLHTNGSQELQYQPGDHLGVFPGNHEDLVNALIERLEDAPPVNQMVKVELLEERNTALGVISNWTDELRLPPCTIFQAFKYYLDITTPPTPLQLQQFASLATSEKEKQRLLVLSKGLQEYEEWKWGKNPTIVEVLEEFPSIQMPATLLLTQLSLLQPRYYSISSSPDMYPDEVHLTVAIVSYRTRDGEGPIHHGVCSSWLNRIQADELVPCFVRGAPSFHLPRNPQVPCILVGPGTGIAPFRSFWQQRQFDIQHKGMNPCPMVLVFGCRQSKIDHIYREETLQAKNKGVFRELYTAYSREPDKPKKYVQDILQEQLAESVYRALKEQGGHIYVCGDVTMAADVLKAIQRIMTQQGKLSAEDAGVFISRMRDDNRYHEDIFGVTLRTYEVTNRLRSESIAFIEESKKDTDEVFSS
Assay readout: IC50 (µM)
One number for each entry, in µM.

Ask: // lookup IC50 for CN1CCCC1CCN1C(=O)COc2cc(NC(=N)c3cccs3)ccc21 (stereo unspecified)
Result: 2.08

###

Molecular target: Nitric oxide synthase 3 (Homo sapiens, UniProt P29474)
Sequence (P29474 whole entry): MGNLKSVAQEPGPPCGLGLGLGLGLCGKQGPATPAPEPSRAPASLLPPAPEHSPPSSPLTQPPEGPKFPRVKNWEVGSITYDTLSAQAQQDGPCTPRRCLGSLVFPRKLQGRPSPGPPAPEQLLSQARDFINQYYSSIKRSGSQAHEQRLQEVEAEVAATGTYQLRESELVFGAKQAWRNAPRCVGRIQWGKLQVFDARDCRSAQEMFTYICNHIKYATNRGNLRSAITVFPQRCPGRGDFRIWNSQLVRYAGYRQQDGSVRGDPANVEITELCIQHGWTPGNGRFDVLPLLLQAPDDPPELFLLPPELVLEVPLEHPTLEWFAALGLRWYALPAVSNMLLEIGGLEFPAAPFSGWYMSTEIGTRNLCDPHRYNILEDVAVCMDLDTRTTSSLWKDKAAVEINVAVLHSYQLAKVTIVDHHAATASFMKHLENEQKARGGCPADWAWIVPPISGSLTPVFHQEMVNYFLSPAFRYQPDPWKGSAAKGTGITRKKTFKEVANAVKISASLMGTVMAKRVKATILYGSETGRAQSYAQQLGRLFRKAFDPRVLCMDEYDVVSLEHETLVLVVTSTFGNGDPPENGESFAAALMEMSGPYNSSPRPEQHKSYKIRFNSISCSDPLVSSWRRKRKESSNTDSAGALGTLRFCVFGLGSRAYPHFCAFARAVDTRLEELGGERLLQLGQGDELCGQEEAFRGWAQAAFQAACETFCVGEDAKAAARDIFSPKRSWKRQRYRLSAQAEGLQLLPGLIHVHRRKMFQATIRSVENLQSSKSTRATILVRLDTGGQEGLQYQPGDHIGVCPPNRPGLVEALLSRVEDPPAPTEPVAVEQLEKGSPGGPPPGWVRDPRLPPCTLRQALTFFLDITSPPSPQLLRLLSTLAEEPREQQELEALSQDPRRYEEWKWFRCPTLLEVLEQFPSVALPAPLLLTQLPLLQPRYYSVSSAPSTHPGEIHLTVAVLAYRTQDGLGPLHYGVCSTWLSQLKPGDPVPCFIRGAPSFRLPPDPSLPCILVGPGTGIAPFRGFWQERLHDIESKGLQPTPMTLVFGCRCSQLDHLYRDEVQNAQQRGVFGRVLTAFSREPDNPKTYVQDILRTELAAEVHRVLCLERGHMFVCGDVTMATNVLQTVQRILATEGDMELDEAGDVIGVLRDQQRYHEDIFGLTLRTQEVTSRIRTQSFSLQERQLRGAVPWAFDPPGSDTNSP
Assay readout: IC50 (µM)
Numbers only, in µM.

Ask: Recorded IC50 for CN1CCCC1CCN1C(=O)COc2cc(NC(=N)c3cccs3)ccc21 (stereo unspecified) with Nitric oxide synthase 3 (Homo sapiens, UniProt P29474), please?
Result: 87.2
